- test-name: in vivo
- experimental-context: male, CFW, mouse, po, 5 mg/kg
property: Tmax (h)

{"molecule": "O=C(Nc1ccc(OC(F)(F)F)cc1)NC1CCN(C(=O)C2CC2)CC1 [Compound 52]", "property": "Tmax", "result-number": 3.17}
